Items are presented alongside their recorded Body weight.
# PROTOCOL_DESCRIPTION: Cynomolgus monkeys: body and organ weights (Example 29)
# Format: in vivo
# ASSAY_SETUP: escalating doses 5, 10, 25 mg/kg s.c., day 71
In the oligonucleotide strings, read from the 5' end, every base follows the letter of its sugar. An asterisk marks phosphorothioate; unmarked linkages are phosphodiester. Other units and linkages are bracketed, terminal groups are in braces. A string of capitals states the bases alone. e = 2'-O-(2-methoxyethyl) (MOE); [5mC] = 5-methylcytosine; d = 2'-deoxy (DNA)
Answer format: numeric, g implied, no suffix.

[
  {
    "SUBSTANCE": "ISIS 416850: gapmer of Table 8 (antisense eT*eG*e[5mC]*eA*e[5mC]*dA*dG*dT*dT*dT*d[5mC]*dT*dG*dG*d[5mC]*eA*eG*eG*e[5mC]*e[5mC])",
    "Body weight / g": 2769
  }
]

Task: Request the reported Body weight associated with ISIS 417002: gapmer of Table 8 (antisense eG*eG*dT*dG*d[5mC]*dA*d[5mC]*dA*dG*dT*dT*dT*d[5mC]*dT*dG*eG*e[5mC]*eA*eG*eG)
Output: 2727

Task: Request the reported Body weight associated with ISIS 416858: gapmer of Table 8 (antisense eA*e[5mC]*eG*eG*e[5mC]*dA*dT*dT*dG*dG*dT*dG*d[5mC]*dA*d[5mC]*eA*eG*eT*eT*eT)
Output: 2865

Task: Request the reported Body weight associated with ISIS 416838: gapmer of Table 6 (antisense eG*e[5mC]*eA*eA*e[5mC]*d[5mC]*dG*dG*dG*dA*dT*dG*dA*dT*dG*eA*eG*eT*eG*e[5mC])
Output: 2869

Task: Request the reported Body weight associated with ISIS 416864: gapmer of Table 8 (antisense eG*eG*e[5mC]*eA*eG*d[5mC]*dG*dG*dA*d[5mC]*dG*dG*d[5mC]*dA*dT*eT*eG*eG*eT*eG)
Output: 2942

###

Items are presented alongside their recorded platelet count.
# PROTOCOL_DESCRIPTION: Cynomolgus monkeys: hematology assays (Example 29)
# Assay type: in vivo
# ASSAY_SETUP: day 78
In the oligonucleotide strings, read from the 5' end, every base follows the letter of its sugar. An asterisk marks phosphorothioate; unmarked linkages are phosphodiester. Other units and linkages are bracketed, terminal groups are in braces. A string of capitals states the bases alone. e = 2'-O-(2-methoxyethyl) (MOE); [5mC] = 5-methylcytosine; d = 2'-deoxy (DNA)
Answer format: numeric, µL⁻¹ implied, no suffix.

For orientation, consider the following solved cases.
[
  {
    "SUBSTANCE": "ISIS 416850: gapmer of Table 8 (antisense eT*eG*e[5mC]*eA*e[5mC]*dA*dG*dT*dT*dT*d[5mC]*dT*dG*dG*d[5mC]*eA*eG*eG*e[5mC]*e[5mC])",
    "VALUE_REPORTED": 449000
  },
  {
    "SUBSTANCE": "ISIS 416838: gapmer of Table 6 (antisense eG*e[5mC]*eA*eA*e[5mC]*d[5mC]*dG*dG*dG*dA*dT*dG*dA*dT*dG*eA*eG*eT*eG*e[5mC])",
    "VALUE_REPORTED": 348000
  },
  {
    "SUBSTANCE": "ISIS 416864: gapmer of Table 8 (antisense eG*eG*e[5mC]*eA*eG*d[5mC]*dG*dG*dA*d[5mC]*dG*dG*d[5mC]*dA*dT*eT*eG*eG*eT*eG)",
    "VALUE_REPORTED": 366000
  },
  {
    "SUBSTANCE": "ISIS 416858: gapmer of Table 8 (antisense eA*e[5mC]*eG*eG*e[5mC]*dA*dT*dT*dG*dG*dT*dG*d[5mC]*dA*d[5mC]*eA*eG*eT*eT*eT)",
    "VALUE_REPORTED": 262000
  }
]

Consider now this further substance.
Task: Request the reported platelet count associated with ISIS 417002: gapmer of Table 8 (antisense eG*eG*dT*dG*d[5mC]*dA*d[5mC]*dA*dG*dT*dT*dT*d[5mC]*dT*dG*eG*e[5mC]*eA*eG*eG)
Output: 432000

###

# Test system: human Factor XI mRNA
# PROTOCOL_DESCRIPTION: Dose-dependent inhibition in HepB3 cells, electroporation (Example 7)
# Type: cell-based
# ASSAY_SETUP: 3333.33 nM, approx. 16 h
Items are presented alongside their recorded percent inhibition of human Factor XI mRNA.
Answer format: numeric, % implied, no suffix.

For orientation, consider the following solved cases.
[
  {
    "SUBSTANCE": "416838 (antisense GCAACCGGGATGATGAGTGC; 5-10-5 gapmer, wing sugar chemistry not given here, further chemistry not given here) [compound 416838]",
    "VALUE_UNITS": "%",
    "VALUE_REPORTED": 77
  },
  {
    "SUBSTANCE": "416999 (antisense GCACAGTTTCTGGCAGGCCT; 2-13-5 gapmer, wing sugar chemistry not given here, further chemistry not given here) [compound 416999]",
    "VALUE_UNITS": "%",
    "VALUE_REPORTED": 94
  },
  {
    "SUBSTANCE": "416925 (antisense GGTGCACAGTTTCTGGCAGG; 3-14-3 chimeric gapmer, wing sugar chemistry not given here, further chemistry not given here) [compound 416925]",
    "VALUE_UNITS": "%",
    "VALUE_REPORTED": 88
  }
]

Task: Entry 416850 (antisense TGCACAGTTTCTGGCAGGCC; 5-10-5 gapmer, wing sugar chemistry not given here, further chemistry not given here) [compound 416850] , system human Factor XI mRNA: what percent inhibition of human Factor XI mRNA was measured?
Output: 90

Task: Entry 416858 (antisense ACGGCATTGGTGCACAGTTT; 5-10-5 gapmer, wing sugar chemistry not given here, further chemistry not given here) [compound 416858] , system human Factor XI mRNA: what percent inhibition of human Factor XI mRNA was measured?
Output: 87

Task: Entry 416826 (antisense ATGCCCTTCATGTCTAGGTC; 5-10-5 gapmer, wing sugar chemistry not given here, further chemistry not given here) [compound 416826] , system human Factor XI mRNA: what percent inhibition of human Factor XI mRNA was measured?
Output: 87

Task: Entry 416825 (antisense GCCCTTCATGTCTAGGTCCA; 5-10-5 gapmer, wing sugar chemistry not given here, further chemistry not given here) [compound 416825] , system human Factor XI mRNA: what percent inhibition of human Factor XI mRNA was measured?
Output: 90

Task: Entry 417002 (antisense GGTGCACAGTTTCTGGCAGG; 2-13-5 gapmer, wing sugar chemistry not given here, further chemistry not given here) [compound 417002] , system human Factor XI mRNA: what percent inhibition of human Factor XI mRNA was measured?
Output: 86

###

Items are presented alongside their recorded Percent inhibition of human Factor XI mRNA levels.
# Tested on: human Factor XI mRNA
# PROTOCOL_DESCRIPTION: Antisense inhibition in HepG2 cells by microwalk gapmers, 8,000 nM, electroporation (Example 14)
# Assay type: cell-based
# ASSAY_SETUP: HepG2 cells, 8,000 nM
In the oligonucleotide strings, read from the 5' end, every base follows the letter of its sugar. An asterisk marks phosphorothioate; unmarked linkages are phosphodiester. Other units and linkages are bracketed, terminal groups are in braces. A string of capitals states the bases alone. e = 2'-O-(2-methoxyethyl) (MOE); [5mC] = 5-methylcytosine; d = 2'-deoxy (DNA)
Answer format: numeric, % implied, no suffix.

[
  {
    "SUBSTANCE": "445509 (antisense e[5mC]*eG*eG*eA*e[5mC]*eG*dG*d[5mC]*dA*dT*dT*dG*dG*dT*eG*e[5mC]*eA*e[5mC]*eA*eG) [compound 445509]",
    "TARGET": "human Factor XI mRNA",
    "VALUE_REPORTED": 84
  },
  {
    "SUBSTANCE": "445503 (antisense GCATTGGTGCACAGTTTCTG; 6-8-6 gapmer chemical modifications, chemistry not fully specified) [compound 445503]",
    "TARGET": "human Factor XI mRNA",
    "VALUE_REPORTED": 89
  }
]

Consider now this further substance.
Task: Request the reported Percent inhibition of human Factor XI mRNA levels associated with 445539 (antisense e[5mC]*eA*eG*e[5mC]*eG*dG*dA*d[5mC]*dG*dG*d[5mC]*dA*dT*eT*eG*eG*eT*eG) [compound 445539]
Output: 79

###

Items are presented alongside their recorded Body weight (increase over PBS control weight before start of treatment).
# PROTOCOL_DESCRIPTION: Tolerability in CD1 mice: body and organ weight (Example 25)
# Assay type: in vivo
# ASSAY_SETUP: 50 mg/kg s.c. twice per week for 6 weeks
In the oligonucleotide strings, read from the 5' end, every base follows the letter of its sugar. An asterisk marks phosphorothioate; unmarked linkages are phosphodiester. Other units and linkages are bracketed, terminal groups are in braces. A string of capitals states the bases alone. e = 2'-O-(2-methoxyethyl) (MOE); [5mC] = 5-methylcytosine; d = 2'-deoxy (DNA)
Answer format: numeric, g implied, no suffix.

[
  {
    "SUBSTANCE": "ISIS 445531: microwalk gapmer of Table 51 (antisense eG*eG*e[5mC]*eA*eT*dT*dG*dG*dT*dG*d[5mC]*dA*d[5mC]*eA*eG*eT*eT*eT)",
    "VALUE_UNITS": "g",
    "VALUE_REPORTED": 10
  },
  {
    "SUBSTANCE": "ISIS 445504: microwalk gapmer of Table 51 (antisense eG*eG*e[5mC]*eA*eT*eT*dG*dG*dT*dG*d[5mC]*dA*d[5mC]*dA*eG*eT*eT*eT*e[5mC]*eT)",
    "VALUE_UNITS": "g",
    "VALUE_REPORTED": 11
  },
  {
    "SUBSTANCE": "ISIS 445505: microwalk gapmer of Table 51 (antisense e[5mC]*eG*eG*e[5mC]*eA*eT*dT*dG*dG*dT*dG*d[5mC]*dA*d[5mC]*eA*eG*eT*eT*eT*e[5mC])",
    "VALUE_UNITS": "g",
    "VALUE_REPORTED": 12
  },
  {
    "SUBSTANCE": "ISIS 445532: microwalk gapmer of Table 51 (antisense e[5mC]*eG*eG*e[5mC]*eA*dT*dT*dG*dG*dT*dG*d[5mC]*dA*e[5mC]*eA*eG*eT*eT)",
    "VALUE_UNITS": "g",
    "VALUE_REPORTED": 10
  }
]

Consider now this further substance.
Task: Request the reported Body weight (increase over PBS control weight before start of treatment) associated with ISIS 445530: microwalk gapmer of Table 51 (antisense eG*e[5mC]*eA*eT*eT*dG*dG*dT*dG*d[5mC]*dA*d[5mC]*dA*eG*eT*eT*eT*e[5mC])
Output: 11
